B1: CPEB3 Ribozyme (parent)
chain: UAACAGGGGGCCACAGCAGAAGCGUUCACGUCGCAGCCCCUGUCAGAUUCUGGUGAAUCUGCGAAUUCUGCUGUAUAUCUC

variants of: B1; test: self-cleavage, relative activity (ratio to wild type); higher = more cleavage; in vitro, sequencing
Would you kindly list self-cleavage for each of these variants?
Give bare numbers.

Variant annotation	self-cleavage
G8U A64G	0.2
A47U U60A	0.21
G8A C17U	0.25
A3G G33A	0.38
C11U A13C	0.09
G7A G46U	0.39
G10C A20U	0.42
C68A U76C	0.54
C32A C38A	0.25
A13G G33A	0.21

Provide self-cleavage values for the following items, in order.
1. A5G G22A
2. A57U A75U
3. C40U U49C
4. C4U U54A
5. U51C U58A
6. A2U U80A
7. U54C A65U

Response line:
[0.24, 1.08, 0.36, 1.18, 0.25, 1.14, 0.32]

Source of measurements: the RNAGym collection of RNA variant scans (doi:10.1093/nar/gkz1192)
